- Tested on: neurologic toxicity
- METHOD_DESCRIPTION: neurologic toxicity (Tox), rat po
- Assay type: in vivo
- EXPERIMENTAL_PARAMETERS: in vivo, time in hours in brackets in the cell
METRIC: TD50

COMPOUND	TD50
C#CCOC[C@H](NC(C)=O)C(=O)NCc1ccc(N=[N+]=[N-])cc1 [(S)-8]	> 30 mg/kg

Ask: Tell me TD50 of O=C1NC(=O)C(c2ccccc2)(c2ccccc2)N1 [phenytoin, reference compound] when tested on neurologic toxicity.
Result: > 3000 mg/kg

Ask: // fetch TD50; item: C#CCOC[C@H](NC(C)=O)C(=O)NCc1ccccc1 [(S)-7] ; system: neurologic toxicity
Result: > 30 mg/kg

* * *

- System: maximal electroshock (MES)-induced seizures
- METHOD_DESCRIPTION: maximal electroshock seizure (MES) test, mice ip
- EXPERIMENTAL_PARAMETERS: Mice (ip); PI = TD50/ED50
METRIC: PI

COMPOUND	METRIC	VALUE_MEASURED
COC[C@@H](NC(C)=O)C(=O)NCc1ccc(C(F)(F)F)cc1 [(R)-10]	PI	∼3.1
COC[C@@H](NC(C)=O)C(=O)NCc1ccc(OCc2cccc(F)c2)cc1 [(R)-3]	PI	∼9.3
CCCC(CCC)C(=O)O [valproate]	PI	1.6
COCC#Cc1ccc(CNC(=O)[C@@H](COC)NC(C)=O)cc1 [(R)-6, reference compound]	PI	∼2.8

Ask: Read the entry COC[C@@H](NC(C)=O)C(=O)NCc1ccc(COc2cccc(F)c2)cc1 [(R)-11] and write its reported PI.
Result: ∼2.8

* * *

- Tested on: maximal electroshock (MES)-induced seizures
- METHOD_DESCRIPTION: maximal electroshock seizure (MES) test, mice ip
- EXPERIMENTAL_PARAMETERS: Mus musculus, ip, read-out: MES, ED50, Mice (ip); time in hours in second brackets; [x; y] = between doses x and y
Measured ED50 values are reported for all entries that follow.

MOLECULE	VALUE_MEASURED
COC[C@@H](NC(C)=O)C(=O)NCc1ccc(COc2cccc(F)c2)cc1 [(R)-11]	3 to 10 mg/kg
COC[C@H](NC(C)=O)C(=O)NCc1ccc(OCc2cccc(F)c2)cc1 [(S)-3]	> 300 mg/kg
CCC1(c2ccccc2)C(=O)NC(=O)NC1=O [Phenobarbital, reference compound]	22 mg/kg
COC[C@@H](NC(C)=O)C(=O)NCc1ccc(C(F)(F)F)cc1 [(R)-10]	30 to 100 mg/kg
COCC#Cc1ccc(CNC(=O)[C@@H](COC)NC(C)=O)cc1 [(R)-6, reference compound]	3 to 10 mg/kg

Ask: Identify measured ED50 corresponding to COC[C@@H](NC(C)=O)C(=O)NCc1ccc(OCc2cccc(F)c2)cc1 [(R)-3]
Result: 10 to 30 mg/kg

Ask: Quick one: give measured ED50 for C#CCOC[C@@H](NC(C)=O)C(=O)NCc1ccccc1 [(R)-7]
Result: 10 to 30 mg/kg

Ask: Provide only the value of recorded ED50 for COC[C@H](NC(C)=O)C(=O)NCc1ccc(N=[N+]=[N-])cc1 [(S)-5, reference compound]
Result: 100 to 300 mg/kg
